# Tested on: Yap1 mRNA
# test method notes: Dose-dependent inhibition of human Yap1 in A-431 cells (Example 8, 10,000 cells per well, RTS4814)
# Assay type: cell-based
# conditions used: 500.0 nM; A-431 cells, 10,000 cells per well, free uptake, approximately 48 hours, RTS4814
# Description: Modified oligonucleotides described in the studies above were tested at various doses in A-431 cells. […] After approximately 48 hours, Yap1 mRNA levels were measured as previously described using the Human Yap1 primer-probe set RTS4814. Yap1 mRNA levels were normalized to total RNA content, as measured by RIBOGREEN®. […] IC50s were calculated using a linear regression on a log/linear plot of the data in excel.
Strand notation (5' to 3'): a small letter for the sugar, then the base; units joined by * are phosphorothioate-linked, units joined directly phosphodiester-linked; [ ] holds rarer units or linkages, { } end groups; capitals alone tell only the bases. k = constrained ethyl (cEt); [5mC] = 5-methylcytosine; d = 2'-deoxy (DNA)
I'd appreciate it if you could supply Yap1 mRNA, % UTC values for the items below.
One number for each entry, in % UTC.

Below: 5 substances and their reported Yap1 mRNA, % UTC.
substance	unit tag	Yap1 mRNA, % UTC
1075047 (antisense kT*kA*kA*dA*dA*dT*dT*dA*dG*dA*d[5mC]*dT*d[5mC]*k[5mC]*k[5mC]*k[5mC]) [compound 1075047]	% UTC	27
1075458 (antisense k[5mC]*k[5mC]*kA*d[5mC]*dA*dA*dT*dA*dT*dA*d[5mC]*dT*d[5mC]*k[5mC]*kA*kA) [compound 1075458]	% UTC	17
1076449 (k[5mC]*k[5mC]*kT*dT*dA*dT*dA*dA*dT*dG*d[5mC]*dA*dA*kT*k[5mC]*k[5mC]; antisense) [compound 1076449]	% UTC	3
1074464 (kT*kT*kA*dG*dA*dG*dT*dA*dT*dG*dT*dG*dG*k[5mC]*kA*kA) [compound 1074464]	% UTC	3
1076003 (kA*kA*kT*dT*dT*dA*dA*dT*dG*dG*d[5mC]*dT*dT*kG*k[5mC]*kA; antisense) [compound 1076003]	% UTC	17

Turning now to a further record.
Challenge: Which Yap1 mRNA, % UTC value belongs to 1075712 (kG*kA*k[5mC]*dG*d[5mC]*dG*dA*dA*dA*dT*dA*d[5mC]*dT*kT*kA*k[5mC]; antisense) [compound 1075712] ?
Response given: 13

---

I'd appreciate it if you could supply TBIL values for the items below.
# test method notes: Tolerability in Balb/c mice, plasma chemistry markers (Example 12)
# Format: in vivo
# conditions used: 50 mg/kg subcutaneously twice a week for four weeks
Strand notation (5' to 3'): a small letter for the sugar, then the base; units joined by * are phosphorothioate-linked, units joined directly phosphodiester-linked; [ ] holds rarer units or linkages, { } end groups; capitals alone tell only the bases. k = constrained ethyl (cEt); [5mC] = 5-methylcytosine; d = 2'-deoxy (DNA)
Numbers only, in mg/dL.

substance	unit tag	TBIL
958509 (kA*kT*kG*dT*dT*dA*dT*dG*dT*dT*dT*dG*dG*kG*kT*kG; antisense) [compound 958509]	mg/dL	0.31
958540 (kA*kT*kT*d[5mC]*dT*dA*dT*d[5mC]*d[5mC]*dA*dG*dG*dG*kT*k[5mC]*kA; antisense) [compound 958540]	mg/dL	0.44
958498 (kG*kA*kG*dT*dA*dT*dG*dT*dG*dG*d[5mC]*dA*dA*kT*kA*kA; antisense) [compound 958498]	mg/dL	0.74
958725 (kG*kT*k[5mC]*dA*dG*dT*dT*dA*dT*d[5mC]*d[5mC]*dT*dA*kT*k[5mC]*k[5mC]; antisense) [compound 958725]	mg/dL	0.91

Below are some substances; for each one, tell me its TBIL.
1. 958553 (k[5mC]*k[5mC]*kA*dT*dT*dA*dT*dT*dA*d[5mC]*dT*d[5mC]*d[5mC]*kT*kG*kT; antisense) [compound 958553]
2. 958721 (kG*kT*kA*dG*dT*dA*dT*dA*dA*dT*dG*dA*dG*kT*kT*kA; antisense) [compound 958721]

Response given:
[0.20, 0.17]

Below are some substances; for each one, tell me its TBIL.
1. 958736 (kG*kT*kG*dA*dT*dA*dT*dG*dG*dA*dT*dT*d[5mC]*kT*kG*kT; antisense) [compound 958736]
2. 958603 (kT*kG*kG*dT*dA*dT*dG*dA*dA*dT*dT*d[5mC]*dT*kG*kA*kA; antisense) [compound 958603]
3. 958554 (kA*kA*k[5mC]*d[5mC]*dA*dT*dT*dA*dT*dT*dA*d[5mC]*dT*k[5mC]*k[5mC]*kT; antisense) [compound 958554]

Response given:
[0.31, 0.35, 0.28]

Below are some substances; for each one, tell me its TBIL.
1. 958375 (antisense kA*kA*kA*dG*d[5mC]*d[5mC]*dT*dT*dA*dG*dA*dG*dT*k[5mC]*kA*kA) [compound 958375]
2. 958499 (ATTAGAGTATGTGGCA; 3-10-3 cEt gapmer, further chemistry not given here) [compound 958499]
3. 958729 (kG*kT*k[5mC]*dA*dG*dT*dT*dA*dT*d[5mC]*d[5mC]*dT*dA*kT*k[5mC]*kT; antisense) [compound 958729]
4. 958590 (kA*kG*kG*dT*dA*dT*dA*dA*d[5mC]*dT*dG*dG*dG*k[5mC]*kA*kA) [compound 958590]
5. 958454 (antisense kG*kG*kA*dA*dT*dG*dA*dG*d[5mC]*dT*d[5mC]*dG*dA*kA*k[5mC]*kA) [compound 958454]

Response given:
1. 0.43
2. 0.17
3. 2.15
4. 0.16
5. 6.53

---

I'd appreciate it if you could supply NEU values for the items below.
# test method notes: Cynomolgus monkey tolerability, hematology (Example 34)
# Assay type: in vivo, cynomolgus monkeys
# conditions used: cynomolgus monkey, in vivo, sc, 35 mg/kg
Answers are plain numbers, in %.

Below are some substances; for each one, tell me its NEU.
1. 1198831 (CACTTTTACATTAGGA; chemically modified gapmer, further chemistry not given here) [compound 1198831]
2. 958499 (ATTAGAGTATGTGGCA; 3-10-3 cEt gapmer, further chemistry not given here) [compound 958499]
3. 1198605 (GTAATATTGCAATCTG; modified gapmer, further chemistry not given here) [compound 1198605]

Response given:
1. 44
2. 49
3. 44

Below are some substances; for each one, tell me its NEU.
1. 1198440 (AAGTGTATGTCAGAAG; cEt, 2'-MOE, 5-methylcytosine, phosphorothioate modifications, further chemistry not given here) [compound 1198440]
2. 1198872 (TGTATGTCAGAAGAGT; chemically modified gapmer, further chemistry not given here) [compound 1198872]
3. 1198439 (AGTGTATGTCAGAAGA; sugar, 5-methylcytosine, phosphorothioate modifications, further chemistry not given here) [compound 1198439]
4. 1076453 (GTAATATTGCAATCTG; 3-10-3 cEt gapmer, further chemistry not given here) [compound 1076453]

Response given:
28
64
27
39

Below are some substances; for each one, tell me its NEU.
1. 1198623 (CTAAGTAAGGTTTCCC; modified gapmer, further chemistry not given here) [compound 1198623]
2. 1197270 (TTAAAGTGTATGTCAG; cEt gapmer with 2'-OMe nucleoside, phosphorothioate, further chemistry not given here) [compound 1197270]
3. 1198728 (TATTAGAGTATGTGGC; modified gapmer, further chemistry not given here) [compound 1198728]

Response given:
1. 43
2. 38
3. 29

---

# Tested on: Yap1 mRNA
# test method notes: Antisense inhibition of human Yap1 in A-431 cells by cEt gapmers, single dose (Example 3, RTS36584)
# Format: cell-based
# conditions used: Table 35; Yap1 mRNA as percent of untreated control; 3-10-3 cEt gapmers targeting SEQ ID NO: 1 and 2; single dose
Strand notation (5' to 3'): a small letter for the sugar, then the base; units joined by * are phosphorothioate-linked, units joined directly phosphodiester-linked; [ ] holds rarer units or linkages, { } end groups; capitals alone tell only the bases. k = constrained ethyl (cEt); [5mC] = 5-methylcytosine; d = 2'-deoxy (DNA)
I'd appreciate it if you could supply YAP1 (% UTC) values for the items below.
Give bare numbers, in % UTC.

Below: 2 substances and their reported YAP1 (% UTC).
substance	unit tag	YAP1 (% UTC)
1075765 (k[5mC]*kT*kT*dA*dA*dG*dG*d[5mC]*dA*dG*d[5mC]*dT*d[5mC]*kT*kA*kT; antisense) [compound 1075765]	% UTC	58
1076341 (antisense kA*kT*kT*dA*dA*d[5mC]*dT*dA*d[5mC]*dA*dA*d[5mC]*dT*kG*kT*kG) [compound 1076341]	% UTC	18

Turning now to a further record.
Challenge: Which YAP1 (% UTC) value belongs to 1075989 (kG*k[5mC]*kT*dA*dA*dA*dA*dT*dT*dA*dA*dG*d[5mC]*kT*kT*k[5mC]; antisense) [compound 1075989] ?
Response given: 78
